Target: hERG (KCNH2) (Homo sapiens, UniProt Q12809)
Sequence (Q12809 whole entry): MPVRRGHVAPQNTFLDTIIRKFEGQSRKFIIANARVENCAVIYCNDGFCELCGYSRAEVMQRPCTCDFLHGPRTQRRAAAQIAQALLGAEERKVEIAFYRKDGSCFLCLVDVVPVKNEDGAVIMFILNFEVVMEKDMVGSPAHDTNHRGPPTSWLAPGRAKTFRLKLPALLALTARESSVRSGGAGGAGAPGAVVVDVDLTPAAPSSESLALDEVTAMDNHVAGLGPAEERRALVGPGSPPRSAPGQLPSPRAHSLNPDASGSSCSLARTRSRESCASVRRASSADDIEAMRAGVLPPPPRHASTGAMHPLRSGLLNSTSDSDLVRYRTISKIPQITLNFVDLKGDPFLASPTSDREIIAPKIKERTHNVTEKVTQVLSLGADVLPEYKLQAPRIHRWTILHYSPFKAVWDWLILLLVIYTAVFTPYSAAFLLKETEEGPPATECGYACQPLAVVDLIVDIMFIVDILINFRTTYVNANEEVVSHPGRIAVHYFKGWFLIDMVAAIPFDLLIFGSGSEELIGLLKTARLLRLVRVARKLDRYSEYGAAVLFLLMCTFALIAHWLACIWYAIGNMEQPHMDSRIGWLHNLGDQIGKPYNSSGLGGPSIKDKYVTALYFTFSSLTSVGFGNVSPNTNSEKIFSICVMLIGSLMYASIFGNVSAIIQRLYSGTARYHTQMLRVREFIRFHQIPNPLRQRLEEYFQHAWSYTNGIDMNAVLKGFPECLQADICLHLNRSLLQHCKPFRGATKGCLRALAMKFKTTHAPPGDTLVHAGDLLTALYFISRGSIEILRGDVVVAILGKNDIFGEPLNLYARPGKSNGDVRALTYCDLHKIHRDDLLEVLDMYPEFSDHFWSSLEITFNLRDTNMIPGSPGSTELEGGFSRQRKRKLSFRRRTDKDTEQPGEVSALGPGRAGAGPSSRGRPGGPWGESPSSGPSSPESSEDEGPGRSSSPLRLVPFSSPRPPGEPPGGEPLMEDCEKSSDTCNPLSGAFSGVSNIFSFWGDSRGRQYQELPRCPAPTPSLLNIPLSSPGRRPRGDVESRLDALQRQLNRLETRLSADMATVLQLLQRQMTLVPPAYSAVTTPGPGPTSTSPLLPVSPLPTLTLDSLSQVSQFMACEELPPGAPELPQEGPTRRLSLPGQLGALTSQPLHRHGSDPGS
Test: Inhibition of human ERG at 10 uM relative to control
inhibition at 10 µM for assorted compounds
Write the value in % as a bare number.

Smiles Record	inhibition at 10 µM (%)
COc1cc(NC(=S)NCCCn2cncc2C)ccc1Oc1ccc(N2CCNCC2)cc1	39.7
COc1cc(NC(=S)NCCCn2cncc2C)ccc1Oc1ccc(C2=CCNCC2)cc1	52.8
COc1cc(NC(=S)NCCCn2cncc2C)ccc1OCCC(=O)NC1CCNCC1	5
COc1cc(NC(=S)NCCCn2cncc2C)ccc1OCc1ccc(C2CCNCC2)cc1	40.1
COc1cc(NC(=S)NCCCn2cncc2C)ccc1OCCN1CCN(CCN)CC1	2.5

Return inhibition at 10 µM measured with hERG (KCNH2) (Homo sapiens, UniProt Q12809) given this compound: `COc1cc(NC(=S)NCCCn2cncc2C)ccc1OCCCC(=O)N1CCNCC1`
1.9

Try the compound `COc1cc(NC(=S)NCCCn2cncc2C)ccc1OCCCCc1ccnc(NCCO)c1`
44.4

Try the compound `COc1cc(NC(=S)NCCCn2cncc2C)ccc1OCCC(=O)N1CCNCC1`
1.7

----------
viability at 10 µM for assorted compounds
Assay: Cytotoxicity against mouse HT22 cells assessed as cell viability at 10 uM relative to control
Assay type: cell-based, HT-22
Settings: read-out: Activity
Write the value in % as a bare number.

# example entries with known answers
Compound	viability at 10 µM / %
COc1cc(NC(=S)NCCCn2cncc2C)ccc1OCCN1CCN(CCN)CC1	100
COc1cc(NC(=S)NCCCn2cncc2C)ccc1Oc1ccc(C2=CCNCC2)cc1	100

Which value of viability at 10 µM has been reported for `COc1cc(NC(=S)NCCCn2cncc2C)ccc1OCCCN1CCN(CCN)CC1` in the records?
100

Try the compound `COc1cc(NC(=S)NCCCn2cncc2C)ccc1OCc1ccc(C2CCNCC2)cc1`
100

Try the compound COc1cc(NC(=S)NCCCn2cncc2C)ccc1OCCN1CCNCC1C (stereo not given)
100

----------
viability at 10 µM for assorted compounds
Assay: Cytotoxicity against mouse HT22 cells assessed as cell viability at 10 uM relative to control
Assay type: cell-based, HT-22
Conditions: read-out: Activity
Write the value in % as a bare number.

# example entries with known answers
Compound	viability at 10 µM / %
COc1cc(NC(=S)NCCCn2cncc2C)ccc1OCCCCN1CCN(CCN)CC1	100
COc1cc(NC(=S)NCCCn2cncc2C)ccc1OCCCCN1CCN(CCO)CC1	100
COc1cc(NC(=S)NCCCn2cncc2C)ccc1OCCN1CC(C)NC(C)C1 (stereo not given)	100
COc1cc(NC(=S)NCCCn2cncc2C)ccc1OCCCCc1ccnc(NCCO)c1	100

# input for lookup
Which value of viability at 10 µM has been reported for `COc1cc(NC(=S)NCCCn2cncc2C)ccc1OCCC(=O)N1CCNCC1` in the records?
100

----------
log(permeability) for assorted compounds
Test: Permeability of the compound at pH 7.4 after 30 mins by PAMPA
Assay type: ADME
Settings: pH 7.4, 0.5 h
Give only the figure.

Compound	Outcome Measure	Numeric Result
COc1cc(NC(=S)NCCCn2cncc2C)ccc1OCCCCN1CCN(CCN)CC1	log(permeability)	-10

Which value of log(permeability) has been reported for `COc1cc(NC(=S)NCCCn2cncc2C)ccc1OCCC(=O)NC1CCNCC1` in the records?
-5.6

Try the compound `COc1cc(NC(=S)NCCCn2cncc2C)ccc1OCCC1CCN(CCO)CC1`
-6.7

Try the compound `COc1cc(NC(=S)NCCCn2cncc2C)ccc1OCCCC(=O)N1CCNCC1`
-5.7

Try the compound `COc1cc(NC(=S)NCCCn2cncc2C)ccc1OCCN1CCN(CCO)CC1`
-6

Try the compound `COc1cc(NC(=S)NCCCn2cncc2C)ccc1Oc1ccc(N2CCNCC2)cc1`
-5.6

Try the compound `COc1cc(NC(=S)NCCCn2cncc2C)ccc1OCCCCc1ccnc(NCCO)c1`
-10

Try the compound `COc1cc(NC(=S)NCCCn2cncc2C)ccc1OCCN1CCN(CCN)CC1`
-5.7

----------
Assay: Permeability of the compound at pH 7.4 after 30 mins by PAMPA
Type: ADME
Settings: pH 7.4, 0.5 h
# Y = log(permeability) below -6 (exclusive); N = log(permeability) at/above -6

The following compounds have reported results that may help.
Compound	Discrete Label
COc1cc(NC(=S)NCCCn2cncc2C)ccc1OCC(=O)N1CCN(CCN)CC1	Y
COc1cc(NC(=S)NCCCn2cncc2C)ccc1OCCN1CCNCC1C (stereo unspecified)	N

Switching to the query record.
Please indicate whether the reported log(permeability) of `COc1cc(NC(=S)NCCCn2cncc2C)ccc1OCCCN1CCN(CCN)CC1` is strictly below -6.
Y

----------
Experiment: Permeability of the compound at pH 7.4 after 30 mins by PAMPA
Format: ADME
Settings: pH 7.4, 0.5 h
# Fulfilled = log(permeability) below -6 (exclusive); Not fulfilled = log(permeability) at/above -6

The following molecules have reported results that may help.
Molecule	Discrete Label
COc1cc(NC(=S)NCCCn2cncc2C)ccc1OCCN1CC(C)NC(C)C1 (stereo not drawn)	Not fulfilled
COc1cc(NC(=S)NCCCn2cncc2C)ccc1Oc1ccc(C2CCNCC2)cc1	Not fulfilled
COc1cc(NC(=S)NCCCn2cncc2C)ccc1OCCCCN1CCN(CCO)CC1	Fulfilled

Switching to the query record.
Please indicate whether the reported log(permeability) of `COc1cc(NC(=S)NCCCn2cncc2C)ccc1OCCC(=O)N1CCNCC1` is strictly below -6.
Not fulfilled

----------
Experiment: Permeability of the compound at pH 7.4 after 30 mins by PAMPA
Type: ADME
Conditions: pH 7.4, 0.5 h
Outcome Measure: log(permeability)
Give only the figure.

Smiles Record	log(permeability)
COc1cc(NC(=S)NCCCn2cncc2C)ccc1OCC(=O)NC1CCN(CCN)CC1	-6.4

Which value of log(permeability) has been reported for `COc1cc(NC(=S)NCCCn2cncc2C)ccc1Oc1ccc(C2=CCNCC2)cc1` in the records?
-4.9

Try the compound `COc1cc(NC(=S)NCCCn2cncc2C)ccc1OCCCCc1ccnc(NCCN)c1`
-10

Try the compound `COc1cc(NC(=S)NCCCn2cncc2C)ccc1OCc1ccc(C2CCNCC2)cc1`
-5.8
